EXPERIMENT SUMMARY: Neutral Red (Toxicity) of the antiviral screening
CONDITION DETAILS: human, Huh7 cells, CC50, Control drug; Assay No. 2; Neutral Red (Toxicity), line of the virus yield reduction assay

COMPOUND	CC50 / µg/mL
O=c1cnn([C@@H]2O[C@H](CO)[C@@H](O)[C@H]2O)c(=O)[nH]1 [Compound 6-azauridine, 6-azauridine, reference compound]	27

====

EXPERIMENT SUMMARY: Mouse PK evaluation, plasma, IV
CONDITION DETAILS: CD-1, mouse, plasma, intravenous, 3 mg/kg, Plasma concentration, Mean, 3 mg/kg IV, CD-1 mice, 1 h
OBSERVABLE: concentration at 1 h

COMPOUND	REPORTED VALUE
CN(C)CCCn1c(N)nc2ccc3c(c21)CC(CO)O3 (stereo not shown)	161 ng/mL
